Collected literature values of IC50 measured for S1P1 (Homo sapiens (Human)).

Solved entries (count: 3):
>>> measured_value("C[C@](N)(COP(=O)(O)O)C(=O)Nc1ccc(OCCc2ccc(-c3ccccc3Cl)cc2)cc1")
"0.001 to 100 nM"
>>> measured_value("C[C@](N)(COP(=O)(O)O)C(=O)Nc1ccc(-c2csc(-c3ccc(-c4ccccc4)cc3)n2)cc1")
"0.001 to 100 nM"
>>> measured_value("O=C(NCc1nc2ccccc2[nH]1)C(O)c1ccc(-c2noc(-c3onc(-c4ccccc4)c3C(F)(F)F)n2)cc1 (racemic)")
"13 nM"

Task: Write IC50 of Cc1cc(-c2nc(-c3ccc4c(c3)CCC(N)(CO)C4)no2)ccc1OC(C)C (stereo not shown) ; system used: S1P1 (Homo sapiens (Human))
Sequence (P21453 whole entry): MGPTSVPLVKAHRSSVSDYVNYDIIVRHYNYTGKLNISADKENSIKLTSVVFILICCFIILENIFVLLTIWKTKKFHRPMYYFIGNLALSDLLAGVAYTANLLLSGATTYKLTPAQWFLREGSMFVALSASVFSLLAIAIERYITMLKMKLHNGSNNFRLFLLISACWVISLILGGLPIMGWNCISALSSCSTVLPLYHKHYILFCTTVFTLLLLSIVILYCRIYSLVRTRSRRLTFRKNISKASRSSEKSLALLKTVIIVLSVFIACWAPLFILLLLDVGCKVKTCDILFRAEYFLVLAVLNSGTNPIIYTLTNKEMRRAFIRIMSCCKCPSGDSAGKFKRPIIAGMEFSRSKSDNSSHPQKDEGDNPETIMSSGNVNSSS
Output: 749 nM
